// provenance: paper PMC9433906

test system: Spodoptera frugiperda (SF21) cells; experiment: In vitro test against insect cells (MTT); format: cell-based; conditions: lowest concentration tested (1 μM), 24 h
Where a SMILES comes first, the peptide text is derived from it.
observed_property: cell viability (SF21)

- compound: "CC(C)C[C@H](NC(=O)[C@H](CCCNC(=N)N)NC(=O)[C@H](CCCCN)NC(=O)[C@H](Cc1ccccc1)NC(=O)[C@H](CC(C)C)NC(=O)[C@H](CCCCN)NC(=O)CNC(=O)[C@H](Cc1ccccc1)NC(=O)CN)C(=O)N[C@@H](C)C(=O)N[C@@H](CCCCN)C(=O)N[C@@H](C)C(=O)N[C@H](C(=O)N[C@@H](C)C(=O)N[C@@H](CCCCN)C(=O)N[C@@H](C)C(=O)N[C@H](C(=O)N[C@@H](C)C(N)=O)C(C)C)C(C)C [Peptide R10b] (H-GFGKLFKRLAKAVAKAVA-NH2)"
  result: "below 50%"
- compound: "CC(C)C[C@H](NC(=O)[C@H](C)NC(=O)CNC(=O)[C@H](Cc1ccccc1)NC(=O)CN)C(=O)N[C@@H](Cc1ccccc1)C(=O)N[C@@H](CCCCN)C(=O)N[C@@H](Cc1ccccc1)C(=O)N[C@@H](CC(C)C)C(=O)N[C@@H](C)C(=O)N[C@@H](CCCCN)C(=O)N[C@@H](CCCCN)C(=O)N[C@H](C(=O)N[C@@H](C)C(=O)N[C@@H](CCCCN)C(=O)N[C@@H](C)C(=O)N[C@H](C(=O)N[C@@H](C)C(N)=O)C(C)C)C(C)C [Peptide R2b] (H-GFGALFKFLAKKVAKAVA-NH2)"
  result: "below 50%"
- compound: "CC(C)C[C@H](NC(=O)[C@H](C)NC(=O)CNC(=O)[C@H](Cc1ccccc1)NC(=O)CN)C(=O)N[C@@H](Cc1ccccc1)C(=O)N[C@@H](CCCCN)C(=O)N[C@@H](Cc1ccccc1)C(=O)N[C@@H](CC(C)C)C(=O)N[C@@H](C)C(=O)N[C@@H](CCCCN)C(=O)N[C@@H](C)C(=O)N[C@H](C(=O)N[C@@H](C)C(=O)N[C@@H](CCCCN)C(=O)N[C@@H](C)C(=O)N[C@H](C(=O)N[C@@H](C)C(N)=O)C(C)C)C(C)C [Peptide R6b] (H-GFGALFKFLAKAVAKAVA-NH2)"
  result: "below 50%"
